Molecular target: Geranylgeranyl transferase type I (Homo sapiens, UniProt P49354+P53609)
Test: Minimum inhibitory concentration required to inhibit Rap1a processing in PSN-1 cells.
Type: functional, cell-based
Metric: MIC (µM)
Answers are plain numbers, in µM.

// known answers, use as guide
[[record]]
item_smiles = "C=CCc1ccc2cc1CN1CCN(CC1=O)Cc1cncn1Cc1ccc(C#N)c(c1)O2"
study_system = "Geranylgeranyl transferase type I (Homo sapiens, UniProt P49354+P53609)"
metric = "MIC"
reading = 1

[[record]]
item_smiles = "N#Cc1ccc2cc1Oc1ccc(Br)c(c1)CN1CCN(CC1=O)Cc1cncn1C2"
study_system = "Geranylgeranyl transferase type I (Homo sapiens, UniProt P49354+P53609)"
metric = "MIC"
reading = 10

[[record]]
item_smiles = "COC(=O)c1ccc2cc1CN1CCN(CC1=O)Cc1cncn1Cc1ccc(C#N)c(c1)O2"
study_system = "Geranylgeranyl transferase type I (Homo sapiens, UniProt P49354+P53609)"
metric = "MIC"
reading = 3

[[record]]
item_smiles = "N#Cc1ccc2cc1Oc1ccc(C#CC3CCCCC3)c(c1)CN1CCN(CC1=O)Cc1cncn1C2"
study_system = "Geranylgeranyl transferase type I (Homo sapiens, UniProt P49354+P53609)"
metric = "MIC"
reading = 0.3


Tell me MIC reported for C#Cc1ccc2cc1CN1CCN(CC1=O)Cc1cncn1Cc1ccc(C#N)c(c1)O2
3

----------
Molecular target: Protein farnesyltransferase (Homo sapiens, UniProt P49354+P49356)
Assay: Displacement of radiolabeled FTI from Farnesyltransferase in cultured Ha-ras transformed RAT1 cells.
Format: cell-based
Provide the recorded pIC50 for the entries that follow.
Give bare numbers, as −log10 of the molar value.

[[record]]
compound = "C=CCc1ccc2cc1CN1CCN(CC1=O)Cc1cncn1Cc1ccc(C#N)c(c1)O2"
reading = 9.23

[[record]]
compound = "CC1(C)OCC(Cc2ccc3cc2CN2CCN(CC2=O)Cc2cncn2Cc2ccc(C#N)c(c2)O3)O1 (stereo not given)"
reading = 9.07

[[record]]
compound = "N#Cc1ccc2cc1Oc1ccc(CCC3CCCCC3)c(c1)CN1CCN(CC1=O)Cc1cncn1C2"
reading = 8.24

[[record]]
compound = "N#Cc1ccc2cc1Oc1cccc(c1)CN1CCN(CC1=O)Cc1cncn1C2"
reading = 8.48


Next up:
Tell me pIC50 reported for N#Cc1ccc2cc1Oc1ccc(CC3CC3)c(c1)CN1CCN(CC1=O)Cc1cncn1C2
8.66

----------
Molecular target: Geranylgeranyl transferase type I (Homo sapiens, UniProt P49354+P53609)
Experiment: Inhibition of human Geranylgeranyl transferase type I incorporation of [3H]GGPP into biotinylated peptide corresponding to the C-terminus of human Ki-Ras.
Provide the recorded pIC50 for the entries that follow.
Numbers only, as −log10 of the molar value.

// known answers, use as guide
[[record]]
compound = "C#Cc1ccc2cc1CN1CCN(CC1=O)Cc1cncn1Cc1ccc(C#N)c(c1)O2"
reading = 6.67

[[record]]
compound = "N#Cc1ccc2cc1Oc1ccc(CC3CC3)c(c1)CN1CCN(CC1=O)Cc1cncn1C2"
reading = 6.62

[[record]]
compound = "N#Cc1ccc2cc1Oc1ccc3cccc(c3c1)N1CCN(CC1=O)Cc1cncn1C2"
reading = 6.52

[[record]]
compound = "CCc1ccc2cc1CN1CCN(CC1=O)Cc1cncn1Cc1ccc(C#N)c(c1)O2"
reading = 6.91

[[record]]
compound = "N#Cc1ccc2cc1Oc1ccc(Br)c(c1)CN1CCN(CC1=O)Cc1cncn1C2"
reading = 7.00


For every item below, please supply its pIC50.
1. N#Cc1ccc2cc1Oc1ccc(C#CC3CCCCC3)c(c1)CN1CCN(CC1=O)Cc1cncn1C2
2. N#Cc1ccc2cc1Oc1cccc(c1)CN1CCN(CC1=O)Cc1cncn1C2
3. N#Cc1ccc2cc1Oc1ccc(F)c(c1)CN1CCN(CC1=O)Cc1cncn1C2
4. CC(C)(C)CCc1ccc2cc1CN1CCN(CC1=O)Cc1cncn1Cc1ccc(C#N)c(c1)O2
5. CC1(C)OCC(Cc2ccc3cc2CN2CCN(CC2=O)Cc2cncn2Cc2ccc(C#N)c(c2)O3)O1 (stereo not given)
6. N#Cc1ccc2cc1Oc1ccc(CC(O)CO)c(c1)CN1CCN(CC1=O)Cc1cncn1C2 (stereo not given)

1: 8.62; 2: 5.42; 3: 5.56; 4: 8.68; 5: 7.34; 6: 5.98

For every item below, please supply its pIC50.
1. N#Cc1ccc2cc1Oc1ccc(CCC3CCCCC3)c(c1)CN1CCN(CC1=O)Cc1cncn1C2
2. CCCc1ccc2cc1CN1CCN(CC1=O)Cc1cncn1Cc1ccc(C#N)c(c1)O2
3. Cc1ccc2cc1CN1CCN(CC1=O)Cc1cncn1Cc1ccc(C#N)c(c1)O2
4. C=CCc1ccc2cc1CN1CCN(CC1=O)Cc1cncn1Cc1ccc(C#N)c(c1)O2

8.77
7.01
6.30
6.97

----------
Organism: Homo sapiens
Assay: Slope between log (IC50) versus log [GGPP] in GGTase-I
Assay type: functional
Labelling: Slope reported below 0.3 becomes label 1; at or above becomes label 0.

See these solved cases before continuing.
[[record]]
compound = "CC(C)(C)CCc1ccc2cc1CN1CCN(CC1=O)Cc1cncn1Cc1ccc(C#N)c(c1)O2"
category = "label 0"

[[record]]
compound = "N#Cc1ccc2cc1Oc1ccc(C#CC3CCCCC3)c(c1)CN1CCN(CC1=O)Cc1cncn1C2"
category = "label 0"

[[record]]
compound = "CC(C)(C)C#Cc1ccc2cc1CN1CCN(CC1=O)Cc1cncn1Cc1ccc(C#N)c(c1)O2"
category = "label 0"

[[record]]
compound = "CC1(C)OCC(Cc2ccc3cc2CN2CCN(CC2=O)Cc2cncn2Cc2ccc(C#N)c(c2)O3)O1 (stereo unspecified)"
category = "label 1"

[[record]]
compound = "N#Cc1ccc2cc1Oc1ccc(CCC3CCCCC3)c(c1)CN1CCN(CC1=O)Cc1cncn1C2"
category = "label 1"


# strict comparison: is reported Slope < 0.3? input = CCc1ccc2cc1CN1CCN(CC1=O)Cc1cncn1Cc1ccc(C#N)c(c1)O2
label 1

# strict comparison: is reported Slope < 0.3? input = N#Cc1ccc2cc1Oc1cccc(c1)CN1CCN(CC1=O)Cc1cncn1C2
label 1

# strict comparison: is reported Slope < 0.3? input = N#Cc1ccc2cc1Oc1ccc3cccc(c3c1)N1CCN(CC1=O)Cc1cncn1C2
label 1

# strict comparison: is reported Slope < 0.3? input = CCCc1ccc2cc1CN1CCN(CC1=O)Cc1cncn1Cc1ccc(C#N)c(c1)O2
label 1

# strict comparison: is reported Slope < 0.3? input = N#Cc1ccc(Cn2cncc2CN2CCN(c3cccc(Cl)c3)C(=O)C2)cc1 [L-778123 FREE BASE]
label 0

# strict comparison: is reported Slope < 0.3? input = N#Cc1ccc2cc1Oc1ccc(C(=O)NC3C4CC5CC(C4)CC3C5)c(c1)CN1CCN(CC1=O)Cc1cncn1C2 (stereo unspecified)
label 1

----------
Target: Protein farnesyltransferase (Homo sapiens, UniProt P49354+P49356)
Test: Inhibition of human Farnesyltransferase -catalyzed incorporation of [3H]FPP into recombinant Ras-CVIM.
Type: protein-complex assay
Metric: pIC50
Give bare numbers, as −log10 of the molar value.

// known answers, use as guide
[[record]]
molecule = "N#Cc1ccc2cc1Oc1ccc(CCC3CCCCC3)c(c1)CN1CCN(CC1=O)Cc1cncn1C2"
study_system = "Protein farnesyltransferase (Homo sapiens, UniProt P49354+P49356)"
reading = 8.80

[[record]]
molecule = "CCc1ccc2cc1CN1CCN(CC1=O)Cc1cncn1Cc1ccc(C#N)c(c1)O2"
study_system = "Protein farnesyltransferase (Homo sapiens, UniProt P49354+P49356)"
reading = 9.18


For every item below, please supply its pIC50.
1. N#Cc1ccc2cc1Oc1ccc(C(=O)NC3C4CC5CC(C4)CC3C5)c(c1)CN1CCN(CC1=O)Cc1cncn1C2 (stereo not drawn)
2. CC(C)(C)C#Cc1ccc2cc1CN1CCN(CC1=O)Cc1cncn1Cc1ccc(C#N)c(c1)O2
3. COC(=O)c1ccc2cc1CN1CCN(CC1=O)Cc1cncn1Cc1ccc(C#N)c(c1)O2
4. N#Cc1ccc2cc1Oc1ccc(C#CC3CCCCC3)c(c1)CN1CCN(CC1=O)Cc1cncn1C2
5. CC1(C)OCC(Cc2ccc3cc2CN2CCN(CC2=O)Cc2cncn2Cc2ccc(C#N)c(c2)O3)O1 (stereo not drawn)

[7.70, 7.42, 7.62, 6.44, 9.30]

----------
Target: Geranylgeranyl transferase type I (Homo sapiens, UniProt P49354+P53609)
Assay: Minimum inhibitory concentration required to inhibit Rap1a processing in PSN-1 cells.
Format: functional, cell-based
Labelling: MIC reported below 1 µM becomes T; at or above becomes F.

See these solved cases before continuing.
[[record]]
compound = "N#Cc1ccc2cc1Oc1ccc(CCC3CCCCC3)c(c1)CN1CCN(CC1=O)Cc1cncn1C2"
study_system = "Geranylgeranyl transferase type I (Homo sapiens, UniProt P49354+P53609)"
category = "T"

[[record]]
compound = "N#Cc1ccc2cc1Oc1ccc(CC3CC3)c(c1)CN1CCN(CC1=O)Cc1cncn1C2"
study_system = "Geranylgeranyl transferase type I (Homo sapiens, UniProt P49354+P53609)"
category = "F"

[[record]]
compound = "N#Cc1ccc2cc1Oc1cccc(c1)CN1CCN(CC1=O)Cc1cncn1C2"
study_system = "Geranylgeranyl transferase type I (Homo sapiens, UniProt P49354+P53609)"
category = "F"


# strict comparison: is reported MIC < 1 µM? input = CC(C)(C)CCc1ccc2cc1CN1CCN(CC1=O)Cc1cncn1Cc1ccc(C#N)c(c1)O2
T

# strict comparison: is reported MIC < 1 µM? input = N#Cc1ccc2cc1Oc1ccc3cccc(c3c1)N1CCN(CC1=O)Cc1cncn1C2
F

# strict comparison: is reported MIC < 1 µM? input = N#Cc1ccc2cc1Oc1ccc(C(=O)NC3C4CC5CC(C4)CC3C5)c(c1)CN1CCN(CC1=O)Cc1cncn1C2 (centres undefined)
T
